Values were extracted from patent US10294212B2.

Target: IDO1 in HeLa cells (Homo sapiens (Human))
Sequence (P14902 whole entry): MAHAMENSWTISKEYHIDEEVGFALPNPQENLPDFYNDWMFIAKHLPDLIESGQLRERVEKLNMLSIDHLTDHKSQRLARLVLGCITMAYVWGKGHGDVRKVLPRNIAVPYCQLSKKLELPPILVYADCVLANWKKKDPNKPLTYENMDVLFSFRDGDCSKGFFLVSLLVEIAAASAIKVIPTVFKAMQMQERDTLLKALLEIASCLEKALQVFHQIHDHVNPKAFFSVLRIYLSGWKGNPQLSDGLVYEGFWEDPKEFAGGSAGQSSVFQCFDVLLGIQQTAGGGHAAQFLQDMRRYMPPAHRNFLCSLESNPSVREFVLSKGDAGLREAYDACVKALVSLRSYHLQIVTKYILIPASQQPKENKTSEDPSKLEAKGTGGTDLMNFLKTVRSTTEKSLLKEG
Test: HeLa cell based IDO1 assay (IFNγ-induced, KYN in supernatant)
The entries below come with measured IC50 values attached.

Prompt: # IC50 lookup, item Nc1oc2c(-c3ccnc(C(=O)NC4CCCCC4)c3)nccc2c1Nc1ccc(F)c(Cl)c1
Response: < 200 nM

Further cases:
Prompt: # IC50 lookup, item Nc1oc2cnccc2c1Nc1cccc(C2CC2)c1
Response: < 200 nM

Prompt: # IC50 lookup, item Nc1oc2c(-c3cc(Cl)cc(Cl)c3)nccc2c1Nc1ccc(F)c(Cl)c1
Response: 200 to 1000 nM

###

Target: Human TDO (hTDO)-transfected CHO-K1 cells (Homo sapiens (Human))
Sequence (P48775 whole entry): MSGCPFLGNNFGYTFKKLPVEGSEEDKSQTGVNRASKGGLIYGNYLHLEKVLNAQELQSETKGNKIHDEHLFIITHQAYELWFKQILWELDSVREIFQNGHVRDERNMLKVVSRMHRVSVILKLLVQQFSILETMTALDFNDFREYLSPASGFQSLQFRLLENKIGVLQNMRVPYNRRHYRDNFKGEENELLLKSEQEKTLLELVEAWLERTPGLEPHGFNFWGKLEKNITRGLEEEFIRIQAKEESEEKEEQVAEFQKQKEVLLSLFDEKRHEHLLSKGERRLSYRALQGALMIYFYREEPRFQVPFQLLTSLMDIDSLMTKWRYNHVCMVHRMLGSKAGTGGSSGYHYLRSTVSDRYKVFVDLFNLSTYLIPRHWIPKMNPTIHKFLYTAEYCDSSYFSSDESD
Assay: CHO-K1 cell based TDO assay
Conditions: hTDO cellular assay
pIC50: −log10 of the molar value.
Measurement label: pIC50

Here is how some molecules turned out for pIC50.
Prompt: # pIC50 lookup, item CC(C)(C)c1cc(-c2nccc3c(Nc4ccc(F)c(Cl)c4)c(N)oc23)ccn1
Response: < 5.70

Prompt: # pIC50 lookup, item CNC(=O)c1cc(-c2nccc3c(Nc4ccccc4Cl)c(N)oc23)ccn1
Response: 5.70 to 6.30

Prompt: # pIC50 lookup, item COc1cc(-c2nccc3c(Nc4ccc(F)c(Cl)c4)c(N)oc23)ccn1
Response: 5.70 to 6.30

Prompt: # pIC50 lookup, item CCc1cc(-c2nccc3c(Nc4ccc(F)c(Cl)c4)c(N)oc23)ccn1
Response: 5.70 to 6.30

Prompt: # pIC50 lookup, item Cc1nccc2c(Nc3cccc(C(F)(F)F)c3)c(N)oc12
Response: < 5.70

Further cases:
Prompt: # pIC50 lookup, item COc1ccc(Nc2c(N)oc3cnccc23)c(OC)c1
Response: < 5.70

Prompt: # pIC50 lookup, item Cc1cc(-c2nc(F)cc3c(Nc4ccc(F)c(F)c4)c(N)oc23)ccn1
Response: 5.70 to 6.30

Prompt: # pIC50 lookup, item Nc1oc2c(-c3ccccc3)nccc2c1Nc1cccc(C(F)(F)F)c1
Response: < 5.70
